experiment: Primary qHTS for delayed death inhibitors of the malarial parasite plastid, 96 hour incubation; conditions: P. falciparum luciferase reporter growth; series mostly up to 28.7 µM
In all, about 320,000 compounds went through this assay and about 22,000 (6.9%) were called active. Roughly 27% stayed inconclusive and do not appear here. Calls come from the whole dose curve; as a rule, active = well fitted inhibition curve with a large enough effect; inconclusive = small, poorly fitted or top-dose-only effect, or another doubt; inactive = no such curve, though single readings can be large or run the other way. The sample holds actives, similar compounds and a random draw of the others, so the mix is not that of the screen.
Give your call using only these classes: YES = active, NO = inactive

Illustrative cases are given below, each with its answer.
compound="CC(=O)N1c2ccc(S(=O)(=O)N(C)CC(=O)N(C)Cc3ccccc3)cc2CC1C (configuration not stated)" label_class=NO
compound=Nc1c(C(=O)OCC(=O)Nc2ccc(OC(F)F)cc2)[nH]c(=O)[nH]c1=O label_class=NO
compound=CCOc1ccc2[nH]c(=O)c(CN(CCCO)S(=O)(=O)c3ccc(F)cc3)cc2c1 label_class=NO

Now, please, on to the next compound.
Which result was noted for this compound in the test: CCn1c(SCc2ccc(C)cc2)nnc1-c1nn(-c2ccccc2)ccc1=O
YES

* * *

experiment: Primary qHTS for delayed death inhibitors of the malarial parasite plastid, 96 hour incubation; conditions: P. falciparum luciferase reporter growth; series mostly up to 28.7 µM
Screen size: about 320,000 compounds; about 22,000 (6.9%) were called active. Not shown: some 27% with an inconclusive outcome. The call rests on the fitted dose curve; in most records, active means well fitted inhibition curve with a large enough effect; inconclusive means small, poorly fitted or top-dose-only effect, or another doubt; inactive means no such curve, though single readings can be large or run the other way. This is one part of a sample in which actives are shown more often than they occur.
Give your call using only these classes: y (active), n (inactive)

Illustrative cases are given below, each with its answer.
compound="Cc1ccc(S(=O)(=O)NCC(=O)N(CC(=O)NCC2CCCO2)c2cccc(F)c2)cc1 (stereo not drawn)" label_class=n
compound="CC(=O)c1ccc(NC(=O)C2CCCN2S(=O)(=O)c2cccs2)cc1 (stereo not drawn)" label_class=n

Which result was noted for this compound in the test: Fc1ccc2c(c1)C(c1cccnc1)=NNC(c1cccs1)=N2
y

Which result was noted for this compound in the test: Cc1nnc2n1N=C(c1ccc3c(c1)NC(=O)CO3)CS2
n

Which result was noted for this compound in the test: Cc1ccc(N(NC(=O)C(C)(C)O)C(=O)c2ccccc2)cc1C
n

Which result was noted for this compound in the test: CN(C)CCn1c2c(c(SCC(=O)NCc3ccccc3)nc1=O)CCC2
n

Which result was noted for this compound in the test: COc1ccccc1CNC(=O)CSc1nc(=O)n(Cc2ccncc2)c2c1CCC2
y

Which result was noted for this compound in the test: CCOc1cc(C(=O)O)ccc1OCCOc1ccccc1
n

Which result was noted for this compound in the test: CC(C)(O)C(=O)NN(C(=O)c1ccccc1)c1cccc(Br)c1
n

* * *

assay: Primary qHTS for delayed death inhibitors of the malarial parasite plastid, 96 hour incubation; conditions: P. falciparum luciferase reporter growth; series mostly up to 28.7 µM
Hit rate of the full screen: of about 320,000 compounds, about 22,000 (6.9%) were called active. Roughly 27% stayed inconclusive and do not appear here. The call rests on the fitted dose curve; in most records, active means well fitted inhibition curve with a large enough effect; inconclusive means small, poorly fitted or top-dose-only effect, or another doubt; inactive means no such curve, though single readings can be large or run the other way. The list comes from a sample in which actives are over-represented; it also holds close analogues and randomly drawn compounds.
Give your call using only these classes: active, inactive

compound=Cn1ncc2c(N3CCCCC3)nc(NCCCO)nc21 label_class=inactive
compound=CC(C)N(Cc1nnc(-c2ccccc2Br)o1)C(=O)c1cc(Cl)nc2ccccc12 label_class=active
compound=O=C(NCCCn1ccnc1)c1cc(Br)c(Br)s1 label_class=inactive
compound="CC(=O)C1=C(C)NC(=O)NC1c1ccc2c(c1)OCO2 (stereo unspecified)" label_class=inactive
compound="CC1CCCCC12NC(=O)N(CC(=O)OCC(=O)NCc1ccc(F)cc1)C2=O (stereo unspecified)" label_class=inactive

Now, please, on to the next compound.
Which result was noted for this compound in the test: CC(C)N(Cc1nnc(-c2ccc(Cl)cc2)o1)C(=O)C1=COCCO1
inactive

src = PubChem BioAssay AID504834
